Target: Beta-N-acetyl-D-hexosaminidase-A/B (Homo sapiens, UniProt P07686+P06865)
Sequence (P07686 whole entry): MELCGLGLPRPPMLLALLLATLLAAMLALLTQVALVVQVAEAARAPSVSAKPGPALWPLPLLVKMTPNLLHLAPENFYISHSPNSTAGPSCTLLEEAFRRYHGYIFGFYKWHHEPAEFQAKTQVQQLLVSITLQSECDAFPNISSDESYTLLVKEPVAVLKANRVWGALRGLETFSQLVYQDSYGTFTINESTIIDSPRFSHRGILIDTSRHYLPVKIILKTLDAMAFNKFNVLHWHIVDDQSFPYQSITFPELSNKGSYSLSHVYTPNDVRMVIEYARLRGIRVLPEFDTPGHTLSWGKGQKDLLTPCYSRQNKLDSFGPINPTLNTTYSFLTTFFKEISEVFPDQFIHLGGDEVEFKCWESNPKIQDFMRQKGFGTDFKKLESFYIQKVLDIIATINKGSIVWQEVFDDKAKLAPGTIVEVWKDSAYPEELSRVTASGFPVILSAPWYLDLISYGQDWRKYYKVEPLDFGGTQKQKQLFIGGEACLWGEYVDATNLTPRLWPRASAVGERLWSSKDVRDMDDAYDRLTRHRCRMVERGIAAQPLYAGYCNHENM
Sequence (P06865 whole entry): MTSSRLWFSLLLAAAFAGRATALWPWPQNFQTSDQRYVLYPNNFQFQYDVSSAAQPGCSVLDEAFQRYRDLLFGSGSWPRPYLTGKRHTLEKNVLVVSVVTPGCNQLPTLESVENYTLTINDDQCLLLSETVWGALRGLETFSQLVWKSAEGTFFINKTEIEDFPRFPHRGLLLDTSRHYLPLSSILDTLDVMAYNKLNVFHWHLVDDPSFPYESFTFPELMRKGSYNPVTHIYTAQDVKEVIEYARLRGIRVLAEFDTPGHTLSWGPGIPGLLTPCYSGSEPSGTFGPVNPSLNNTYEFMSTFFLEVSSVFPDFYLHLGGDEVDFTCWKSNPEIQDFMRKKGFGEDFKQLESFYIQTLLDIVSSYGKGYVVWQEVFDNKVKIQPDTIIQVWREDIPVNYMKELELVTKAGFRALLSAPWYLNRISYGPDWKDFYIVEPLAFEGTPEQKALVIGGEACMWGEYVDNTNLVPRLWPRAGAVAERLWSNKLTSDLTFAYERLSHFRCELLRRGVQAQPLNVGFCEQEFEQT
Assay: Inhibition of human beta-N-acetyl-D-hexosaminidase-A/B using 4-Methylumbelliferyl N-acetyl-beta-D-glucosaminide as substrate incubated for 10 mins prior to substrate addition by spectrofluorometric analysis
Type: protein assay
Give Ki for every item shown.
Numbers only, in nM.

COc1cccc(CNCCN2C(=O)c3cccc4cccc(c34)C2=O)c1
6220
COc1cccc(OCCNCCN2C(=O)c3cccc4cccc(c34)C2=O)c1
930
COc1ccc(OCCNCCN2C(=O)c3cccc4cccc(c34)C2=O)cc1OC
690
COC(=O)c1ccc(OCCNCCN2C(=O)c3cccc4cccc(c34)C2=O)cc1
4200
COc1ccc(SCCNCCN2C(=O)c3cccc4cccc(c34)C2=O)cc1
1130
COc1ccc(OCCNCCN2C(=O)c3cccc4cccc(c34)C2=O)cc1
1040
NCCCN1C(=O)c2cccc3cccc(c23)C1=O
29080
O=C1c2cccc3cccc(c23)C(=O)N1CCNCCN1C(=O)c2cccc3cccc(c23)C1=O
3220

With those in mind, consider the next compound.
Item: `COc1ccccc1OCCNCCN1C(=O)c2cccc3cccc(c23)C1=O` | Ki: 1350

Origin of values: ChEMBL document CHEMBL2384927
